# Study target: recombinant guanylate cyclase reporter cell line (Rattus norvegicus, UniProt P19686+P20595)
# Construct: expressed in transfected cells
# Sequence (P20595 1-619): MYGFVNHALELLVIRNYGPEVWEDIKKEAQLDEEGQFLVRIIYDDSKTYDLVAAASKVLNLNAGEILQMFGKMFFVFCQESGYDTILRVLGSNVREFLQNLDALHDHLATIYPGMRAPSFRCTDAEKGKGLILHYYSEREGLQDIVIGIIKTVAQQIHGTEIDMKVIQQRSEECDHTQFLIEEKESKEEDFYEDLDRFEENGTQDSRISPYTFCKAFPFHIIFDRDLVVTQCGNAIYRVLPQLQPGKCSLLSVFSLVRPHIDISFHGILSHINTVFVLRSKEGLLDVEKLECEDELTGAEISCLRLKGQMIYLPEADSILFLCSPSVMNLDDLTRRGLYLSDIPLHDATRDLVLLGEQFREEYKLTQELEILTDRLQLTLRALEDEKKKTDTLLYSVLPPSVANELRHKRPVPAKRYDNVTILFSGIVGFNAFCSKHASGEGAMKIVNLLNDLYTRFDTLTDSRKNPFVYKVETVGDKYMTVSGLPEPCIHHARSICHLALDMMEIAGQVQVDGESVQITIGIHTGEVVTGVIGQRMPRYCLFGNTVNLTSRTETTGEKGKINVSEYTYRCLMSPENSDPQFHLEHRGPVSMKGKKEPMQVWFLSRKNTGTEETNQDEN
# Sequence (P19686 1-690): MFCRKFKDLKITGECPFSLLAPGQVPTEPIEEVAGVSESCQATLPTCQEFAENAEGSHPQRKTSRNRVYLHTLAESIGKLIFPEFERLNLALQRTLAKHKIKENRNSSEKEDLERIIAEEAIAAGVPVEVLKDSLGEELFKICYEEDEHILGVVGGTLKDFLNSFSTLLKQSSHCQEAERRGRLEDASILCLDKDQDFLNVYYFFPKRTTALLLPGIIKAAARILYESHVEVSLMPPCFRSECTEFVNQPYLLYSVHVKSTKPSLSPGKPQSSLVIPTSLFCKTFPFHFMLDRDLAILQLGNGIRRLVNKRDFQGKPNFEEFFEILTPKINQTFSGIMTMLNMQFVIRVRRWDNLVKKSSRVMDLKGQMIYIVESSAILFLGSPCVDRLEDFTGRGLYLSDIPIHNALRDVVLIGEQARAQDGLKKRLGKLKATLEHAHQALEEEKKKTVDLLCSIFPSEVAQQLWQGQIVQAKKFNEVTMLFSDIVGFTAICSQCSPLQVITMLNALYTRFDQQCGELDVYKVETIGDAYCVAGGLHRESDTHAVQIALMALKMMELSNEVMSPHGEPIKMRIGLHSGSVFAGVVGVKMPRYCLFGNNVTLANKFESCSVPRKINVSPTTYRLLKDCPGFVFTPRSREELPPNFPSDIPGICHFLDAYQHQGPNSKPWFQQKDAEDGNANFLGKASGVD
# Assay protocol: Action on recombinant guanylate cyclase reporter cell line
# Type: cell-based
Measurement label: MEC (minimal effective concentration)

Compound	MEC (minimal effective concentration)
COc1nc(-c2nn(Cc3ccccc3F)c3ncccc23)nc2c1C(C)(C)C(=O)N2 [Example 1]	0.1 μm
CC1(C)C(=O)Nc2nc(-c3nn(Cc4ccccc4F)c4ncccc34)nc(N3CCS(=O)(=O)CC3)c21 [Example 93]	0.3 μm
CC1(C)C(=O)Nc2nc(-c3nn(Cc4ccccc4F)c4ncccc34)nc(NCc3ccncc3)c21 [Example 85]	0.3 μm
CC1(CNc2nc(-c3nn(Cc4ccccc4F)c4ncccc34)nc3c2C(C)(C)C(=O)N3)COC1 [Example 67]	0.03 μm
CC1(C)C(=O)Nc2nc(-c3nn(Cc4ccccc4F)c4ncccc34)nc(N3C[C@@H]4C[C@H]3CO4)c21 [Example 46]	0.1 μm
CC1(C)C(=O)Nc2nc(-c3nn(Cc4ccccc4F)c4ncccc34)nc(N[C@@H]3CCCOC3)c21 [Example 51]	0.03 μm

Request: Item CC1(C)C(=O)Nc2nc(-c3nn(Cc4ccccc4F)c4ncccc34)nc(-n3cc(C(F)(F)F)cn3)c21 [Example 29] has what recorded MEC (minimal effective concentration)?
Result: 1.0 μm

Request: Now give it for CC1(C)C(=O)Nc2nc(-n3nc(Cc4ccccc4F)c4cc(F)ccc43)nc(O)c21 [Example 31] too.
Result: 0.01 μm

Request: Now give it for CC1(C)C(=O)Nc2nc(-c3nn(Cc4ccccc4F)c4ncc(F)cc34)nc(N3CCC(F)(F)CC3)c21 [Example 103] too.
Result: 1 μm

Request: Now give it for CC1(C)C(=O)Nc2nc(-c3nn(Cc4ccccc4F)c4ncccc34)nc(NCc3ccc(F)cc3)c21 [Example 77] too.
Result: 0.1 μm

Request: Now give it for CC1(C)C(=O)Nc2nc(-c3nn(Cc4ccccc4F)c4ncc(F)cc34)nc(NCC3CC3)c21 [Example 10] too.
Result: 0.3 μm

Request: Now give it for CC1(C)C(=O)Nc2nc(-c3nn(Cc4ccccc4F)c4ncccc34)nc(NCC3CCCC3)c21 [Example 80] too.
Result: 0.03 μm

====

# Study target: recombinant guanylate cyclase reporter cell line (Rattus norvegicus, UniProt P19686+P20595)
# Construct: expressed in transfected cells
# Assay protocol: Action on recombinant guanylate cyclase reporter cell line
# Format: cell-based
Below, each entry is listed with its recorded MEC (minimal effective concentration).
Report the value in μm with no unit label.

Request: Item CC1(C)C(=O)Nc2nc(-c3nn(Cc4ncccc4F)c4ncc(F)cc34)nc(NCCC(F)(F)F)c21 has what recorded MEC (minimal effective concentration)?
Result: 0.1

Request: Now give it for CC1(C)C(=O)Nc2nc(-c3nn(Cc4ccccc4F)c4ncccc34)nc(OCCO)c21 too.
Result: 0.03

Request: Now give it for CC1(C)C(=O)Nc2nc(-c3nn(Cc4ccccc4F)c4ncccc34)nc(NCc3cccnc3)c21 too.
Result: 0.1

Request: Now give it for CCN1CCN(c2nc(-c3nn(Cc4ccccc4F)c4ncccc34)nc3c2C(C)(C)C(=O)N3)C1=O too.
Result: 0.03

Request: Now give it for CC1(C)C(=O)Nc2nc(-c3nn(Cc4ccccc4F)c4ncccc34)nc(N3CCCCC3)c21 too.
Result: 0.03

Request: Now give it for CC1(C)C(=O)Nc2nc(-c3nn(Cc4ccccc4F)c4ncc(F)cc34)nc(NCCCC(F)(F)F)c21 too.
Result: 0.03

Request: Now give it for CC1(C)C(=O)Nc2nc(-c3nn(Cc4ccccc4F)c4ncccc34)nc(NCc3ccccc3F)c21 too.
Result: 0.1

Request: Now give it for CC1(C)C(=O)Nc2nc(-n3nc(Cc4ccccc4F)c4ccccc43)nc(NCC3CC3)c21 too.
Result: 0.3

====

# Study target: recombinant guanylate cyclase reporter cell line (Rattus norvegicus, UniProt P19686+P20595)
# Construct: expressed in transfected cells
# Assay protocol: Action on recombinant guanylate cyclase reporter cell line
# Type: cell-based
Measurement label: MEC (minimal effective concentration) (μm)
Report the value in μm with no unit label.

Compound	Observed value
CC(C)(O)CNc1nc(-c2nn(Cc3ccccc3F)c3ncc(F)cc23)nc2c1C(C)(C)C(=O)N2	0.1
CC1(C)C(=O)Nc2nc(-c3nn(Cc4ccccc4F)c4ncccc34)nc(N3CCNC(=O)C3)c21	0.1
CC(O)c1ccn(-c2nc(-c3nn(Cc4ccccc4F)c4ncccc34)nc3c2C(C)(C)C(=O)N3)n1 (stereo not drawn)	0.3
CC1(C)C(=O)Nc2nc(-c3nn(Cc4ccccc4F)c4ncccc34)nc(N3CCOC(C(F)(F)F)C3)c21 (stereo not drawn)	1.0
CC1(C)C(=O)Nc2nc(-c3nc(Cc4ccccc4F)c4ncccn34)nc(NCCC(F)(F)F)c21	0.1
CCN(CCOC)c1nc(-c2nn(Cc3ccccc3F)c3ncccc23)nc2c1C(C)(C)C(=O)N2	0.03
CC1(C)C(=O)Nc2nc(-c3nc(Cc4c(F)ccc(F)c4F)n4cc(Cl)ccc34)nc(NCCC(F)(F)F)c21	0.1
CC1(C)C(=O)Nc2nc(-c3nn(Cc4ccccc4F)c4ncccc34)nc(N3CC(C(F)(F)F)CC3=O)c21 (stereo not drawn)	0.1
CC1(C)C(=O)Nc2nc(-c3nn(Cc4ccccc4F)c4ncccc34)nc(N3CCCC3)c21	0.1
CC1(C)C(=O)Nc2nc(-c3nn(Cc4ccccc4F)c4c3CCC4)nc(NCCC(F)(F)F)c21	0.3

Request: Item CC1(C)C(=O)Nc2nc(-c3nn(Cc4ccccc4F)c4ncccc34)nc(NC[C@H]3CCCO3)c21 has what recorded MEC (minimal effective concentration)?
Result: 0.01

Request: Now give it for CC1(C)C(=O)Nc2nc(-c3nn(Cc4ccccc4F)c4ncccc34)nc(N3CCC(O)CC3)c21 too.
Result: 0.01

Request: Now give it for CC1(C)C(=O)Nc2nc(-c3nn(Cc4ccccc4F)c4ncccc34)nc(NCc3cccc(F)c3)c21 too.
Result: 0.03

Request: Now give it for COC1CN(c2nc(-c3nn(Cc4ccccc4F)c4ncccc34)nc3c2C(C)(C)C(=O)N3)C1 too.
Result: 3.0

Request: Now give it for CC1(C)C(=O)Nc2nc(-n3nc(Cc4ccccc4F)c4cc(F)ccc43)nc(NCCC(F)(F)F)c21 too.
Result: 0.3
